test system: rabbit vWF A1 domain (SEQ ID NO 6); experiment: 3-point dot blot screen, rabbit vWF A1 domain; format: binding; settings: DNA SELEX 1 aptamers; 100 nM rabbit vWF A1 domain; ratio of fraction bound with target to without
Sequence (as listed by the source): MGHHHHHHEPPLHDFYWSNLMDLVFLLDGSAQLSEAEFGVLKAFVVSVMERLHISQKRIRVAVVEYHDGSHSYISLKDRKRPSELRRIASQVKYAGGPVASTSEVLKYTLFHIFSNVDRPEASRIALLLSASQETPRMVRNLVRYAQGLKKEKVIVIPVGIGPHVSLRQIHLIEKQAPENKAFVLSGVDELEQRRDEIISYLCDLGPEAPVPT
observable: Screen- Rabbit/No Protein
One number for each entry.

molecule="AMX199.B7: DNA SELEX 1 aptamer clone (nucleic acid, DNA, backbone not given here, DNA SELEX 1 aptamer clone) DNA: CTACCTACGATCTGACTAGCGGGATGAGAGTGCTGGTGGATTGCTCAGGTCTGCTGGCTGCTTACTCTCATGTAGTTCC" reading=3.65
molecule="AMX202.H10: DNA SELEX 1 aptamer clone (nucleic acid, DNA, backbone and methylation of C not given here, DNA SELEX 1 aptamer clone) CTACCTACGATCTGACTAGCGGAATGAGAAGGCTGGTGGATTGCTCAGGTCTGCTGGCTGCTTACTCTCATGTAGTTCC" reading=1.76
molecule="AMX199.G10: DNA SELEX 1 aptamer clone (nucleic acid, DNA, backbone not given here, DNA SELEX 1 aptamer clone) DNA: CTACCTACGATCTGACTAGCGGAATGAGAATGTTGGTGGATTGCTCAGGTCTGCTGGCTGCTTACTCTCATGTAGTTCC" reading=2.66
molecule="AMX200.D11: DNA SELEX 1 aptamer clone (nucleic acid, DNA, backbone not given here, DNA SELEX 1 aptamer clone) DNA: CTACCTACGATCTGACTAGCGGAATAAGAATGCTGATGGATTGCTCAGGTCTGCTGGCTGCTTACTCTCATGTAGTTCC" reading=2.04

Please turn your attention to the following entry.
Given AMX202.F6: DNA SELEX 1 aptamer clone (nucleic acid, DNA, backbone not given here, DNA SELEX 1 aptamer clone) DNA: CTACCTACGATCTGACTAGCAAGGGGATTGGCTCCGGGTCTGGCGTGCTCGGCACCTTCGGCTTACTCTCATGTAGTTCC , respond with its Screen- Rabbit/No Protein.
1.46
